Tested on: SK-MEL-5
Experiment: NCI tumour cell line growth inhibition, 48 h
Calls of active or inactive are those of the source. Cut-off read from the data, not from the text of the source: active = GI50 up to about 1.1 µM and inactive = higher.
I'd be grateful if you could share measured GI50 for these entries.

Some solved cases for reference:
{"COMPOUND": "Cc1ccccc1/C=C/C(=O)c1ccccc1", "GI50": "> 10 µM (inactive)"}
{"COMPOUND": "Cn1nc(N)nc1N=S(C)(C)=N", "GI50": "> 100 µM (inactive)"}
{"COMPOUND": "Clc1cccc(N2CCN(CCN3CCc4c([nH]c5ccccc45)C3c3cccnc3)CC2)c1 (configuration not stated)", "GI50": "97.7 µM (inactive)"}
{"COMPOUND": "COC(=O)C1CCCC2(C1)OCCO2 (configuration not stated)", "GI50": "> 100 µM (inactive)"}

Provide GI50 values for the following items, in order.
1. COc1cccc2cc(C(=O)O)c(=O)oc12
2. CC1C[C@]2(C)C(NCCN)=Nc3ccccc3[C@@H]2N(C)c2ccccc21 (some centres not stated)
3. C=C(C#N)C1OCC2OC(C)(C)OC21 (configuration not stated)
4. CC(C)CN(CC#N)CC(C)C
5. CCSCC(N)C(=O)O (configuration not stated)
6. C#CCCOC(=O)CC1=C(C)/C(=C/c2ccc([S+](C)[O-])cc2)c2ccc(F)cc21 (configuration not stated)
7. Cc1ccc(/C=N/Nc2cc(C)c3cccc(C)c3n2)s1

Data returned:
> 100 µM (inactive)
13.7 µM (inactive)
17.3 µM (inactive)
> 100 µM (inactive)
> 100 µM (inactive)
12.3 µM (inactive)
9.86 µM (inactive)

Record O=c1[nH]c(=O)n(CCOc2ccc(Cl)cc2)cc1Nc1ccccc1 . Reported GI50: > 100 µM (inactive)

---

Test system: RXF 393
Assay: NCI tumour cell line growth inhibition, 48 h
Calls of active or inactive are those of the source. Cut-off read from the data, not from the text of the source: active = GI50 up to about 1.1 µM and inactive = higher.
I'd be grateful if you could share measured GI50 for these entries.

Some solved cases for reference:
{"COMPOUND": "CC1C(=O)OC2CC[N+]3(CC(=O)c4ccc(Br)cc4)CC=C(COC(=O)C(C)(O)C1(C)O)C23 (stereo unspecified)", "GI50": "> 375 µM (inactive)"}
{"COMPOUND": "Cn1c(=O)cc(NCc2ccc(Cl)cc2)[nH]c1=O", "GI50": "68.7 µM (inactive)"}
{"COMPOUND": "CC(C)(C)C1=Nc2c(Br)cc(C(C)(C)C)cc2C(C(F)(F)F)(C(F)(F)F)O1", "GI50": "22.5 µM (inactive)"}
{"COMPOUND": "CN(C)C(=S)/N=c1\\ss/c(=N\\C(=S)N(C)C)n1-c1ccc2c(c1)OCO2", "GI50": "> 100 µM (inactive)"}
{"COMPOUND": "CC1(C)COC(c2ccc(C(F)(F)F)cc2C(O)c2ccc3ccccc3c2)=N1 (stereo unspecified)", "GI50": "16 µM (inactive)"}

Provide GI50 values for the following items, in order.
1. O=C1CC(c2n[nH]c3ccccc23)C(=O)N1c1ccccc1 (stereo unspecified)
2. C/C(N)=C/C(=O)c1[nH]c(C(=O)O)cc1C1CCN(Cc2ccccc2)C1=O (stereo unspecified)

Data returned:
1. > 100 µM (inactive)
2. 18.5 µM (inactive)

---

Tested on: HL-60
Assay: NCI tumour cell line growth inhibition, 48 h
The source made the active and inactive calls. No stated cut-off is given here; in the data, active = GI50 up to about 1.1 µM and inactive = higher.
Thanks in advance; please answer with one of these: active, inactive

{"MOLECULE": "O=C(CC(=O)N(C(=O)c1ccccc1)c1ccc(Cl)cc1)N/N=C\\c1ccccc1O", "ASSIGNED CATEGORY": "inactive"}
{"MOLECULE": "Cc1ccc(/C=N/Nc2cc(C)c3cccc(C)c3n2)s1", "ASSIGNED CATEGORY": "inactive"}
{"MOLECULE": "CC(=O)C1=CC=C/C1=N\\Nc1ccccc1", "ASSIGNED CATEGORY": "active"}

Data request: // outcome(item) with item = CC(O)(Cc1ccccc1C#N)Cc1ccccc1C#N
Data returned: inactive

Data request: // outcome(item) with item = CC1(C)COC(c2ccc(C(F)(F)F)cc2C(O)c2ccc3ccccc3c2)=N1 (configuration not stated)
Data returned: inactive

Data request: // outcome(item) with item = O/N=C1/CCCc2nonc21
Data returned: inactive

Data request: // outcome(item) with item = COc1ccc(C)cc1NC(=S)N/N=C/c1ccc(SC)cc1
Data returned: inactive

Data request: // outcome(item) with item = N=C(N)NS(=O)(=O)c1ccc(/N=N/c2c(O)c(C(=O)O)cc3ccccc23)cc1
Data returned: inactive

Data request: // outcome(item) with item = CCOC(=O)Nc1sc2c(c1C#N)CCCC2
Data returned: inactive

Data request: // outcome(item) with item = OCC1OC(c2ccccc2)CC1O (configuration not stated)
Data returned: inactive

Data request: // outcome(item) with item = COc1ccc2c(c1)[C@@H]1c3cc(OC)c(OC)cc3CCN1CCC2
Data returned: inactive

Data request: // outcome(item) with item = CCCC(=O)OC1C(CO)OC(n2cc(F)c(=O)[nH]c2=O)C1F (configuration not stated)
Data returned: inactive

---

Test system: SK-MEL-5
Assay: NCI tumour cell line growth inhibition, 48 h
Active and inactive are the calls of the source. No stated cut-off is given here; in the data, active = GI50 up to about 1.1 µM and inactive = higher.
Thanks in advance; please answer with one of these: 1 = active, 0 = inactive

Worked set:
{"MOLECULE": "Cc1cc2nc(N3C(=O)/C(=C/c4ccccc4S)N=C3c3ccccc3)sc2cc1C", "ASSIGNED CATEGORY": 0}
{"MOLECULE": "CCOC(=O)c1c(-c2ccc(OC)cc2)ccn1C", "ASSIGNED CATEGORY": 0}
{"MOLECULE": "CCCCCCCCCCCCCCCC(=O)OC(COC(C)=O)CO[PH](=O)O (stereo unspecified)", "ASSIGNED CATEGORY": 0}

Data request: // outcome(item) with item = COc1ccc(/C=C2\CCC(CCN(C)C)(C3=CCCC3)C2=O)cc1 (stereo unspecified)
Data returned: 0

Data request: // outcome(item) with item = COc1ccc2nccc(/C=C/c3ccc(N(C)C)cc3)c2c1
Data returned: 0

Data request: // outcome(item) with item = N[C@H](C(=O)O)[C@H]1ON=C(Cl)[C@@H]1O
Data returned: 1

---

Test system: NCI-H226
Assay: NCI tumour cell line growth inhibition, 48 h
The source made the active and inactive calls. No stated cut-off is given here; in the data, active = GI50 up to about 1.1 µM and inactive = higher.
PARAMETER: GI50

Some solved cases for reference:
{"MOLECULE": "NNc1ccccc1Cl", "PARAMETER": "GI50", "RECORDED RESULT": "> 100 µM (inactive)"}
{"MOLECULE": "O=[N+]([O-])c1ccc2nc(O)c(/C=C(\\O)c3ccccc3)nc2c1", "PARAMETER": "GI50", "RECORDED RESULT": "17.6 µM (inactive)"}
{"MOLECULE": "O=C1N[C@H](C(=O)O)[C@@H](c2ccc(OCc3ccccc3)cc2)O1", "PARAMETER": "GI50", "RECORDED RESULT": "24.9 µM (inactive)"}
{"MOLECULE": "CC1(C)COC(c2ccc(C(F)(F)F)cc2C(O)c2ccc3ccccc3c2)=N1 (stereo not given)", "PARAMETER": "GI50", "RECORDED RESULT": "51.3 µM (inactive)"}

Now take the following molecule into account.
Record C[C@H]1C[C@@H]2[C@H]([C@@H](O)C[C@@]3(C)[C@H]2CC[C@]3(O)C(=O)CO)[C@@]2(C)C=CC(=O)C=C12 [METHYLPREDNISOLONE] . Reported GI50: > 100 µM (inactive)

---

Test system: KM12
Assay: NCI tumour cell line growth inhibition, 48 h
Counter-ions that a name gives are not always drawn. Activity calls are given as the source filed them. Cut-off read from the data, not from the text of the source: active = GI50 up to about 1.1 µM and inactive = higher.
I'd be grateful if you could share measured GI50 for these entries.

Some solved cases for reference:
{"COMPOUND": "OCC(O)COc1c(Cl)cc(Cl)cc1Cl (stereo unspecified)", "MEASURED TARGET": "KM12", "PARAMETER": "GI50", "RECORDED RESULT": "> 100 µM (inactive)"}
{"COMPOUND": "CCOc1ccccc1/N=N/C1C(=O)N(C(=O)CC(=O)Nc2ccccc2OC)N=C1C (stereo unspecified)", "MEASURED TARGET": "KM12", "PARAMETER": "GI50", "RECORDED RESULT": "> 100 µM (inactive)"}
{"COMPOUND": "CC(=O)OCc1ccc2c(c1)C(O)NC(=O)O2 (stereo unspecified)", "MEASURED TARGET": "KM12", "PARAMETER": "GI50", "RECORDED RESULT": "88.5 µM (inactive)"}
{"COMPOUND": "C=CCC1(CN(C)C)CC/C(=C\\c2ccc3c(c2)OCO3)C1=O (stereo unspecified)", "MEASURED TARGET": "KM12", "PARAMETER": "GI50", "RECORDED RESULT": "42.3 µM (inactive)"}
{"COMPOUND": "COC(=O)C(Cc1nc2ccc(Cl)cc2nc1O)C(=O)C(=O)Nc1ccccc1[N+](=O)[O-] (stereo unspecified)", "MEASURED TARGET": "KM12", "PARAMETER": "GI50", "RECORDED RESULT": "> 100 µM (inactive)"}
{"COMPOUND": "CN1C[C@H](C(=O)N[C@]2(C)O[C@@]3(O)[C@@H]4CCCN4C(=O)[C@H](Cc4ccccc4)N3C2=O)C=C2c3cccc4[nH]cc(c34)C[C@H]21 [ERGOTAMINE TARTRATE]", "MEASURED TARGET": "KM12", "PARAMETER": "GI50", "RECORDED RESULT": "28.8 µM (inactive)"}

Provide GI50 values for the following items, in order.
1. CNC(=O)c1nc[nH]c1/N=N/N(C)N
2. O=C(N/N=C/c1cccc(F)c1)c1ccncc1
3. CCOC(=O)/C(=C\NC#N)c1nc2ccccc2[nH]1
4. Cc1ccc(S(=O)(=O)NC(=O)NC(Cc2ccc(O)cc2)C(=O)O)cc1 (stereo unspecified)
5. Cc1ccc(S(=O)(=O)N/N=C(/CC(=O)c2c(C)[n+]([O-])c3ccccc3[n+]2[O-])C(=O)Nc2ccc(C)c(C)c2)cc1
6. COc1ccccc1NC(=O)C1=C(C)NC(C)=C(C(=O)Nc2ccccc2OC)C1C1=CC=COC1
7. O=c1[nH]nc(Nc2ccc(Cl)cc2)c2nnn(C3CCCCC3)c12

Data returned:
1: 40.5 µM (inactive); 2: > 100 µM (inactive); 3: > 100 µM (inactive); 4: > 100 µM (inactive); 5: 28.2 µM (inactive); 6: 9.14 µM (inactive); 7: 65.5 µM (inactive)

Provide GI50 values for the following items, in order.
1. CCN1CCC(O)(c2ccccc2)C(C(=O)c2ccccc2)C1 (stereo unspecified)
2. S=C(S)NCC1CCC(CNC(=S)S)CC1 (stereo unspecified)
3. N#C/C(=C1\OC(=N)C(c2ccccc2)C1=O)c1ccccc1 (stereo unspecified)
4. C=C1C(=O)C23CC1CCC2C12CO[C@@H]4OCC(C)(CC[C@@H]1OC3=O)C42 (stereo partly specified)
5. O=c1oc2ccc(Cl)cc2cc1-c1cn2ccccc2n1
6. CC(SC1=CC(=O)c2c(Cl)ccc(O)c2C1=O)C(=O)O (stereo unspecified)
7. CCCCCCCCCCCCOCC(COP(=O)(O)OCCN=[N+]=[N-])OC(=O)CCCCCCCCCCC (stereo unspecified)

Data returned:
["45.4 µM (inactive)", "19.7 µM (inactive)", "48.2 µM (inactive)", "5.43 µM (inactive)", "> 100 µM (inactive)", "18 µM (inactive)", "> 100 µM (inactive)"]

Record COc1ccc(/C=C2\CCC(CCN(C)C)(C3=CCCC3)C2=O)cc1 (stereo unspecified) . Reported GI50: 18 µM (inactive)
